Reported pSyk EC50 values for the following binders.
target_under_test: T1, human TREM2 on cells (human, UniProt Q9NZC2 19-230)
T1 sequence: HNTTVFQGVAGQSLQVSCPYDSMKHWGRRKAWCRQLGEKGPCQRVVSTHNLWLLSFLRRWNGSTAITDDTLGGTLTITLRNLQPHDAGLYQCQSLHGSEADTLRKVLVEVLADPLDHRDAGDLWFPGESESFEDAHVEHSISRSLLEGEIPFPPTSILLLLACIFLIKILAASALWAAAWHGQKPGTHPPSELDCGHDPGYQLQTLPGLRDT
assay_info: cell-based or functional assay
observable: pSyk EC50

>>> reported("6E7 (antibody, human IgG2, V domains shown, human IgG2 from hybridoma) VH: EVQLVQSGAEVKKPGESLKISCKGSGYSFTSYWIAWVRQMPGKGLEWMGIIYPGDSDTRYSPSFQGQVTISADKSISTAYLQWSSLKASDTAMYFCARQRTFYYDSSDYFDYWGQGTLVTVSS VL: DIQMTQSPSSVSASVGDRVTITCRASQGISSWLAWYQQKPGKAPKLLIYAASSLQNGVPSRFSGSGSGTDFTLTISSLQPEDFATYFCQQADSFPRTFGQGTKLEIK")
"0.29 nM"
>>> reported("14C12 (antibody, human IgG2, V domains shown, human IgG2 from hybridoma) VH: EVQLVQSGAEVKKPGESLMISCKGSGYSFTSYWIGWVRQMPGKGLEWMGIIYPGDSDTRYSPSFQGQVTISADKSISTAYLQWSSLKASDTAMYFCARRRQGIWGDALDFWGQGTLVTVSS VL: EIVMTQSPATLSVSPGERATLSCRASQSVSSNLAWFQQKPGQAPRLLIYGASTRATGIPARFSVSGSGTEFTLTISSLQSEDFAVYYCLQDNNWPPTFGPGTKVDIK")
"0.4 nM"
>>> reported("4C5 (antibody, V domains shown, human IgG2 from hybridoma) VH: EVQLVQSGAEVKKPGESLKISCKGSGHSFTNYWIAWVRQMPGKGLEWMGIIYPGDSDTRYSPSFQGQVTISADKSISTAYLQWSSLKASDTAVYFCARQRTFYYDSSGYFDYWGQGTLVTVSS VL: DIQMTQSPSSVSASVGDRVTITCRASQGISNWLAWYQQKPGKAPKLLIYAASSLQVGVPLRFSGSGSGTDFTLTISSLQPEDFATYYCQQADSFPRNFGQGTKLEIK")
"0.18 nM"

Where do these numbers come from? They come from patent US20220204611A1.
